Test system: SK-MEL-2
Test: NCI tumour cell line growth inhibition, 48 h
Calls of active or inactive are those of the source. No stated cut-off is given here; in the data, active = GI50 up to about 1.1 µM and inactive = higher.
Observed property: GI50

• O=C(O)C1CCCN1C(=O)c1cc(Cl)ccn1 (stereo unspecified) = > 100 µM (inactive)
• Cc1ccc2c(c1)c1ccc3c(c1n2C)C(=O)C=CC3=O = 7.48 µM (inactive)
• O=c1[nH]nc(Cc2ccccc2)n1/N=C/c1c(O)ccc2ccccc12 = 38.1 µM (inactive)
• COc1ccc(OCc2nc3cc(C(F)(F)F)ccc3nc2-c2ccccc2)cc1 = > 100 µM (inactive)
• COc1ccc(C(OCC2OC(n3cc(C)c(=O)[nH]c3=O)CC2n2cc(Cn3cc(Cl)c(=O)[nH]c3=O)nn2)(c2ccccc2)c2ccccc2)cc1 (stereo unspecified) = > 100 µM (inactive)
• Cc1cccc2cc3ccc4ccccc4c3cc12 = 26.5 µM (inactive)
• O=C(O)Cc1cc(=O)[nH]c2c1C(=O)CCC2 = > 100 µM (inactive)
• C1CCN(c2nsc(N3CCCCC3)n2)CC1 = > 100 µM (inactive)
• NC(=O)/N=C1\NCCC(=O)N1CCc1c[nH]c2ccccc12 = 14.2 µM (inactive)
• Cc1cccc(O)c1-c1nnc(CCCCCCCCc2nnc(-c3c(C)cccc3O)n2N)n1N = 38.3 µM (inactive)
• CC(=O)NC(CCCN)C(=O)NCc1ccccc1 (stereo unspecified) = > 100 µM (inactive)

* * *

Measured GI50, listed per entry.
Test system: Hs-578T
Assay: NCI tumour cell line growth inhibition, 48 h
Calls of active or inactive are those of the source. Cut-off read from the data, not from the text of the source: active = GI50 up to about 1.1 µM and inactive = higher. Non-standard residues stand in square brackets, D forms with d. Residues, ends and D or L forms follow the SMILES beside them. ξ: configuration not given here. *: point of attachment. ξHyp = O=C(O)C1CC(O)CN1; Cbz = O=C(OCc1ccccc1)*
Observed property: GI50

* CC(=O)Nc1c(C)cc2c(nc3n2CCC3O)c1[N+](=O)[O-] (configuration not stated) | > 100 µM (inactive)
* CCOC(=O)OC1(c2ccccc2)CCN(C)CC1 | > 100 µM (inactive)
* Cc1ccc(S(=O)(=O)n2c3c(c4ccccc42)CCN2CCC(Br)C[C@@H]32)cc1 (some centres not stated) | 13.7 µM (inactive)
* COC(=O)CCNC(=O)OCc1ccccc1 | > 100 µM (inactive)
* O=C1N/C(=N/N=C\c2ccccc2)N/C1=C/c1ccccc1 | 27.3 µM (inactive)
* CC(=O)Nc1ccc2c(c1)nc1c3ccccc3ccn21 | > 100 µM (inactive)
* O=C(CN1CCNCCN(CC(=O)N2CCCCC2)CCNCC1)N1CCCCC1 | > 100 µM (inactive)
* Nc1ccn(C2OC(COP(=O)(O)OCC3OC(n4cc(F)c(=O)[nH]c4=O)CC3O)C(O)C2O)c(=O)n1 (configuration not stated) | > 100 µM (inactive)
* CCOC(=O)C(=O)N1C(C)=C(C(=O)OCC)CC(C(=O)OCC)=C1C | > 100 µM (inactive)
* COc1cc(C(C)O)c(S(=O)(=O)CC(C)O)nn1 (configuration not stated) | > 100 µM (inactive)
* Cc1ccc(C2(c3ccc(C)cc3)SC(=C(C#N)C#N)c3ccccc32)cc1 | > 100 µM (inactive)
* CCCCCCCCCCCC[C@@H](O)[C@H]1CCC([C@H](O)CCCCC(=O)CCCCCCCC2=C[C@H](C)OC2=O)O1 (some centres not stated) | 11.3 µM (inactive)
* CC1CC2CCCC(=O)C2=C(O)O1 (configuration not stated) | > 100 µM (inactive)
* CC1C(c2ccccc2O)c2cc3c(cc2OC1N1CCCC1)OCO3 (configuration not stated) | 18.2 µM (inactive)
* CCOC(=O)c1c(-c2ccc(Cl)cc2)c(C#N)c(=S)n(C2OC(COC(C)=O)C(OC(C)=O)C(OC(C)=O)C2OC(C)=O)c1-c1ccccc1 (configuration not stated) | > 100 µM (inactive)
* COc1cccc2c1C(=O)OC2c1cccc2ccccc12 (configuration not stated) | 33 µM (inactive)
* COc1ccc2cc(CNCCCCCCCCNCc3ccc4cc(OC)ccc4c3)ccc2c1 | 8.77 µM (inactive)
* COc1ccc(-c2cn3c(nc4ccccc43)c(C)n2)cc1 | 41.6 µM (inactive)
* CCn1c(=O)c2c(=O)[nH][nH]c2c2ccccc21 | > 100 µM (inactive)
* O=C(c1ccccn1)C1(N2CCCCC2)CCCCC1 | 15.5 µM (inactive)
* CCSc1cc(=O)n(C)c(=O)n1C | > 100 µM (inactive)
* NC(=O)CNC(=O)C1CC(O)CN1C(=O)OCc1ccccc1 (configuration not stated) (Cbz-[ξHyp]-Gly-NH2) | > 100 µM (inactive)

* * *

Listed below: GI50 values for each entry.
Tested on: NCI-H522
Experiment: NCI tumour cell line growth inhibition, 48 h
The source made the active and inactive calls. No stated cut-off is given here; in the data, active = GI50 up to about 1.1 µM and inactive = higher.
Observed property: GI50

* CC(=O)OCC1OC(N2C(=O)/C(=N\NC(N)=S)c3ccc([N+](=O)[O-])cc32)C(OC(C)=O)C1OC(C)=O (centres undefined) | 15 µM (inactive)
* C[N+](C)(C)CCCSc1nc2ccccc2[nH]1 | > 100 µM (inactive)
* COc1ccc(C2C(C#N)=C(S)N(C3OC(COC(C)=O)C(OC(C)=O)C(OC(C)=O)C3OC(C)=O)C(c3ccccc3)=C2C(C)=O)cc1 (centres undefined) | 61.4 µM (inactive)
* O=C1c2ccccc2C(=O)[C@@]23O[C@@]12C1(Oc2cccc4cccc(c24)O1)[C@@H]1O[C@@H]1[C@@H]3O | 3.36 µM (inactive)
* CC(=O)O[C@]12CCCCCCC1C1(O)C(O)CCC[C@H]12 (some centres undefined) | > 100 µM (inactive)
* O=C1Nc2ccccc2/C1=N/Nc1ncccc1[N+](=O)[O-] | 9.71 µM (inactive)
* Nc1ccc(COC(O)CN2CCCCC2)cc1[N+](=O)[O-] (centres undefined) | > 100 µM (inactive)
* S=c1nc(Nc2ccccc2)c2c3c(sc2[nH]1)CCCC3 | 71.4 µM (inactive)
* Nc1ccn(C2OC(COP(=O)(O)OCC3OC(n4cc(F)c(=O)[nH]c4=O)CC3O)C(O)C2O)c(=O)n1 (centres undefined) | 14.6 µM (inactive)
* CS/C(c1ccccc1)=[N+](\[O-])Cc1ccccc1 | 90.2 µM (inactive)
* C/N=C1\S/C(=N\c2ccc(N(C)C)cc2)N1C | 25.8 µM (inactive)
* Cc1c2ccccc2c(C)n2c1nc1cc(Cl)c(Cl)cc12 | 5.81 µM (inactive)
* CCC(C)COC(=O)c1ccc(/N=C\c2ccc(/C=N/c3ccc(C(=O)OCC(C)CC)cc3)cc2)cc1 (centres undefined) | > 100 µM (inactive)
* CCN(CC)CCOc1ccc(N2C(=O)c3cc(OC)c(OC)cc3C2=O)cc1 | > 100 µM (inactive)
* O=C(/C=C/c1cccc([N+](=O)[O-])c1)c1ccc([N+](=O)[O-])cc1 | > 100 µM (inactive)
* CCN(CC)CCOC(=O)c1ccc(N)cc1.CCOC(=O)Nc1ccc(S(=O)(=O)OC)cc1.CCOC(=O)Nc1ccc(S(=O)(=O)OC)cc1.Nc1ccc(C(=O)O)c(O)c1 | > 100 µM (inactive)
* COc1cc2c(cc1OC)[C@@H](Nc1ccc(F)cc1)C1COC(=O)[C@@H]1C2c1cc(OC)c(O)c(OC)c1 (some centres undefined) | 2.2 µM (inactive)
* CC1(C)NC2C(=O)c3c([nH]c4ccccc34)[C@]3(C)CCC1CC23 (some centres undefined) | > 100 µM (inactive)
* CCOc1ccc(/N=N/c2c(-c3ccccc3)nn(C(=O)CC(=O)Nc3cccc(C)c3)c2-c2ccccc2)cc1 | > 100 µM (inactive)

* * *

Test system: HT-29
Assay: NCI tumour cell line growth inhibition, 48 h
Calls of active or inactive are those of the source. Rule as the data show it: active = GI50 up to about 1.1 µM and inactive = higher. Peptide text beside a SMILES is read from it. * marks the point of attachment. Boc = CC(C)(C)OC(=O)*
Outcomes: active, inactive

* C=CCCC1CCCCC/C1=N\N(C)C (configuration not stated) | inactive
* CCOC(=O)C12CCC(=O)N1N(C)c1ncccc1N2 (configuration not stated) | inactive
* CC1=C[C@]2(CC(C)C3C(CC4(C)C5CCC6C(C)(C)C(=O)CC[C@@]67C[C@@]57CC[C@]34C)O2)OC1=O (some centres not stated) | inactive
* COC(=O)C1=Nc2c(C)nn(-c3ccccc3)c2N=C(c2ccc(C)cc2)C1 | inactive
* Cc1c(C)c(C)c(Cn2[nH]c(=O)n(C)c2=O)c(C)c1C | inactive
* CSC1=N/C(=C\c2cccs2)C(=O)N1CN1CCCCC1 | inactive
* O=C1Nc2ccccc2/C1=N/Nc1ncccc1[N+](=O)[O-] | inactive
* O=C1C=CC(=O)N1Nc1ccc([N+](=O)[O-])cc1[N+](=O)[O-] | inactive
* CCCn1c2c(c3ccccc3c1=O)C(=O)c1ccccc1-2 | inactive
* CC(=O)OC1C(O)C(C)OC(OC2C(OC(=O)C3CCC4C(C3)OC3(CC(OC(=O)/C=C/c5ccccc5)C(C)CO3)C43CO3)OC(C)C(O)C2OC(C)=O)C1O (configuration not stated) | active
* C[C@@]1(O)C2C3CC4C5C3C1[C@](O)(C42)[C@H]5Br (some centres not stated) | inactive
* COc1ccc(-c2cc3ccccc3[nH]c2=O)cc1OC | inactive
* O=c1ccc(=O)n(-c2ccccc2)[nH]1 | inactive
* CC1(C)NC2C(=O)c3c([nH]c4ccccc34)[C@]3(C)CCC1CC23 (some centres not stated) | inactive
* C=C1CC[C@@H](C)[C@](C)(CCc2ccoc2)C/C=C\C=C/1C(=O)O | inactive
* CC(C)C1COC(C(C)(C)C2=N[C@@H](C(C)C)CO2)=N1 (some centres not stated) | inactive
* COc1ccc(CCCN2c3ccccc3Sc3ccccc32)cc1 | inactive
* CO[C@@H]1C[C@H]2[C@@H]3CC[C@H]([C@@H](C)COC(C)=O)[C@@]3(C)CC[C@@H]2[C@@]2(C)CC[C@H]3C[C@]312 | inactive
* CN(C)/C=N/[C@@H](C(=O)O)c1ccccc1 | inactive
* O=C(OC1C2OC(=O)c3cc(O)c(O)c(O)c3Oc3cc4c(c(O)c3O)-c3c(cc(O)c(O)c3O)C(=O)OCC3OC(O)C(OC(=O)c5cc(O)c(O)c(O)c5Oc5cc6c(c(O)c5O)-c5c(cc(O)c(O)c5O)C(=O)OC1C(COC6=O)OC2O)C(OC(=O)c1cc(O)c(O)c(O)c1)C3OC4=O)c1cc(O)c(O)c(O)c1 (configuration not stated) | inactive
* CCOC(=O)CN(Cc1ccccc1)Cc1c(C(=O)c2ccccc2)c2ccccc2n1C(=O)c1ccccc1 | inactive
* [O-][S+](Cc1ccccn1)c1nc2ccccc2nc1-c1ccccc1 (configuration not stated) | inactive
* CC1CCc2c(sc3ncnc(N/N=C/c4ccc(Cl)cc4)c23)C1 (configuration not stated) | inactive
* CC(NC1=NCCO1)c1cccc([N+](=O)[O-])c1 (configuration not stated) | inactive
* CCOCC(NC(=O)C(CC(C)C)NC(=O)OC(C)(C)C)C(N)=O (stereo not drawn) (Boc-Leu-Ser(Et)-NH2; configuration not given here) | inactive
* COc1ccccc1NC(=O)CC(=O)n1nc(-c2ccccc2)c(/N=N/c2ccccc2[N+](=O)[O-])c1-c1ccccc1 | inactive
* CCC(C)COC(=O)c1ccc(/N=C\c2ccc(/C=N/c3ccc(C(=O)OCC(C)CC)cc3)cc2)cc1 (configuration not stated) | inactive
* O/N=C\c1c(O)ccc2ccccc12 | inactive
* O=c1[nH]nc(Cc2ccccc2)n1/N=C/c1c(O)ccc2ccccc12 | inactive
* O=C(/C=C/c1cccc([N+](=O)[O-])c1)c1ccc([N+](=O)[O-])cc1 | inactive
* CCc1cc2c(cc1CCCC(=O)O)CC1(Cc3ccc(C(=O)O)cc3C1)C2 (configuration not stated) | inactive
* Cc1ccc(Cc2cc(N3CCN(c4cccc(Cl)c4)CC3)nnc2C)cc1 | inactive
* CC(=O)CCCCn1c(=O)c2c(nc(Br)n2C)n(C)c1=O | inactive
* Nc1ncnc2c1ccn2C/C=C\CO | inactive
* CCOC(=O)c1c(-c2ccc(Cl)cc2)c(C#N)c(=S)n(C2OC(COC(C)=O)C(OC(C)=O)C(OC(C)=O)C2OC(C)=O)c1-c1ccccc1 (configuration not stated) | inactive
* N#CC1(C#N)C2CCCCC23OC(=N)C1(C#N)C(c1ccco1)O3 (configuration not stated) | inactive
* Nc1nc(-c2ccccc2)cc(-c2cc(Cl)ccc2O)n1 | inactive
